Value source: patent US6632829B2

Target: human ETB receptor (Homo sapiens, UniProt P24530)
Construct: expressed in transfected cells; host or cells: COS7 cells
Sequence (P24530 27-442): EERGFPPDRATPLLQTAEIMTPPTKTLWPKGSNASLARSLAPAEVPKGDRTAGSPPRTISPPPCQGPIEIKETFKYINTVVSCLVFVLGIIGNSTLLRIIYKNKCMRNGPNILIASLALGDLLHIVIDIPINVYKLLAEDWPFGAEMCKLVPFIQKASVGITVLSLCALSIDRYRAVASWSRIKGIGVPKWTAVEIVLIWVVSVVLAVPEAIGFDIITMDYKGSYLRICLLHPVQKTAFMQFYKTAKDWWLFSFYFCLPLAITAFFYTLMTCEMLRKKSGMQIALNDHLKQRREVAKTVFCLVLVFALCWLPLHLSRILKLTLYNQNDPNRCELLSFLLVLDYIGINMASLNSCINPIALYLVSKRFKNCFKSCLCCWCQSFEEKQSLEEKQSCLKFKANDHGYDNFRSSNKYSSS
Assay: Endothelin binding inhibition, Binding Test #2: competition with 125I-ET-1 for ETB receptors on transfected COS7 cell membranes
Conditions: incubation at 24° C. (values marked †)
Consider the following molecules; for each one, report its IC50.

Sample `CC(=O)OCCOc1cc2c(cc1NC(=O)c1sccc1S(=O)(=O)Nc1onc(C)c1Cl)OCO2` , system: human ETB receptor (Homo sapiens, UniProt P24530). Its IC50 is ~18 µM

Here `Cc1cc2c(cc1C=CCc1ccsc1S(=O)(=O)Nc1onc(C)c1Br)OCO2` was tested on human ETB receptor (Homo sapiens, UniProt P24530), and its IC50 came to ~6 µM

The recorded IC50 with human ETB receptor (Homo sapiens, UniProt P24530) for `CCCc1cc2c(cc1OCc1ccsc1S(=O)(=O)Nc1onc(C)c1Br)OCO2` was ~1.5 µM

Tested system human ETB receptor (Homo sapiens, UniProt P24530); IC50 recorded for `Cc1cc2c(cc1CCc1ccsc1S(=O)(=O)Nc1onc(C)c1Br)OCO2` was ~5 µM

Let me check: `Cc1noc(NS(=O)(=O)c2ccsc2C(=O)Nc2cc3c(cc2OCCO)OCO3)c1Cl` , system human ETB receptor (Homo sapiens, UniProt P24530), measured IC50 is ~18 µM

* * *

Molecular target: human ETA receptors (Homo sapiens)
Construct: endogenous in cells; host or cells: TE 671 cells (ATCC HTB 139), membrane preparation
Sequence (P25101 21-427): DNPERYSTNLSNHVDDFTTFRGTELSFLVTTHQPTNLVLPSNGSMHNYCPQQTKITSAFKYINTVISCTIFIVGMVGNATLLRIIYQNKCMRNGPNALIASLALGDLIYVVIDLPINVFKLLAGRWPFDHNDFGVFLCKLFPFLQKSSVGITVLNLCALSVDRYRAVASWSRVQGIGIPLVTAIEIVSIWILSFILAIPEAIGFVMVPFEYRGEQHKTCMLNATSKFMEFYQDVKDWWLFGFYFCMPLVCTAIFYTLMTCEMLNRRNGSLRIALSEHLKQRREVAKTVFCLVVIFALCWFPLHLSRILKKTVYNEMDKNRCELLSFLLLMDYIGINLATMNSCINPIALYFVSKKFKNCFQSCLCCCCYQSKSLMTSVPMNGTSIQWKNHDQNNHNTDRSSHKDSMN
Experiment: Endothelin binding inhibition, Binding Test #1: competition with 125I-ET-1 for ETA receptors on TE 671 cell membranes
Details: incubation at 24° C. (values marked †)
pIC50: −log10 of the molar value.
endpoint: pIC50

Data point: `CC(=O)OCCOc1cc2c(cc1NC(=O)c1sccc1S(=O)(=O)Nc1onc(C)c1Cl)OCO2` ; pIC50 = ~7.70

Short answer for `Cc1noc(NS(=O)(=O)c2ccsc2C(=O)Nc2cc3c(cc2OCCO)OCO3)c1Cl` : pIC50 was ~8.00

For this compound ( `Cc1noc(NS(=O)(=O)c2ccsc2C(=O)Cc2cc3c(cc2C#N)OCO3)c1Cl` ), measured pIC50 is ~6.52

`Cc1ccc(CC(=O)c2sccc2S(=O)(=O)Nc2onc(C)c2Cl)c(C)c1` yielded pIC50 of 9.40
